Target: human recombinant ghrelin receptor (GHS-R1a) (Homo sapiens, UniProt Q92847)
Construct: host or cells: CHO-K1
Sequence (Q92847 whole entry): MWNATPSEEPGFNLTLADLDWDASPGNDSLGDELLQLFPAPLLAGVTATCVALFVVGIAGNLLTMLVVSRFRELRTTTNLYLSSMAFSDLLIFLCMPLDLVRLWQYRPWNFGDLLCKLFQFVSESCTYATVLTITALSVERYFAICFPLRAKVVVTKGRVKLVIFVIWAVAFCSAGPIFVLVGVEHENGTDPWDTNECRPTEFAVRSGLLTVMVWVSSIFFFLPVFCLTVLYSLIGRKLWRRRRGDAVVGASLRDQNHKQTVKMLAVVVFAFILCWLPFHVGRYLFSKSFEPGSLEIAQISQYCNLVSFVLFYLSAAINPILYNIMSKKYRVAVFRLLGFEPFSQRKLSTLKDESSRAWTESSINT
Test: hGHS-R1a cAMP assay (HTRF cAMP dynamic 2 kit, CHO-hGHS-R1a cells)
Format: cell-based
Conditions: 60 min incubation, dose response up to 30 μM
property-name: EC50 (µM)

CN1C[C@@H](c2ccccc2)[C@@]2(CCCN(C(=O)[C@@H](COCc3ccccc3)NC(=O)C(C)(C)N)C2)C1=O (single isomer, unassigned); 0.043

1: CN1CC(c2ccc(F)cc2)C2(CCCN(C(=O)[C@@H](Cc3c[nH]c4ccccc34)NC(=O)C(C)(C)N)C2)C1=O (single isomer, unassigned)
2: CN1CC(c2ccccc2)C2(CCCN(C(=O)[C@@H](CCCc3ccccc3)NC(=O)C(C)(C)N)C2)C1=O (single isomer, unassigned)
Enquiry: Pick one: 1 or 2 . Which has the bigger EC50 number? Mark your selection by writing its label.
Return: 1
(1: 0.023 µM, 2: 0.011 µM)

----------
Molecular target: human recombinant ghrelin receptor (GHS-R1a) (Homo sapiens, UniProt Q92847)
Construct: host or cells: CHO-K1
Assay: hGHS-R1a Ca assay (Fluo-4 calcium assay in CHO-K1 cells)
Assay type: cell-based
Conditions: CHO-K1 cells expressing human GHS-R1a; agonist dose response up to 30 μM
property-name: EC50 (µM)

Below are worked cases with known answers.
CN1CC(c2ccccc2)C2(CCCN(C(=O)[C@@H](COCc3ccccc3)NC(=O)C(C)(C)N)CC2)C1=O (single isomer, unassigned); 0.0004
Cc1ccc(COC[C@@H](NC(=O)C(C)(C)N)C(=O)N2CCCC3(C2)C(=O)N(C)CC3c2ccc(F)cc2)cc1 (stereo partly drawn) [Example 1.72]; 0.005
CC(C)(N)C(=O)N[C@H](COCc1ccccc1)C(=O)N1CCCC2(C1)C(=O)NCC2c1ccccc1 (single isomer, unassigned) [Example 1.4]; 0.0002
CC(C)(C)CN1CC(c2ccccc2)C2(CCCN(C(=O)[C@@H](COCc3ccccc3)NC(=O)C(C)(C)N)C2)C1=O (stereo partly drawn) [Example 1.75]; 0.0036
Cc1ccc(COC[C@@H](NC(=O)C(C)(C)N)C(=O)N2CCCC3(C2)C(=O)N(C)CC3c2ccc(F)cc2)cc1 (single isomer, unassigned) [Example 1.29]; 0.00035
CN1CC(c2ccccc2)C2(CCCN(C(=O)[C@@H](CCCc3ccccc3)NC(=O)C(C)(C)N)C2)C1=O (single isomer, unassigned); 0.0003

I: CN1CC(c2ccc(Cl)cc2)C2(CCCN(C(=O)[C@@H](COCc3ccccc3)NC(=O)C(C)(C)N)C2)C1=O (single isomer, unassigned)
II: CN1C[C@@H](c2ccc(F)cc2)[C@@]2(CCCN(C(=O)[C@@H](COCc3ccccc3)NC(=O)C(C)(C)N)C2)C1=O
Enquiry: // which entry reports the smaller EC50, I or II ? Write down the label of the entry you select.
Return: II
(II: 0.0001 µM, I: 0.0003 µM)

----------
Molecular target: human recombinant ghrelin receptor (GHS-R1a) (Homo sapiens, UniProt Q92847)
Construct: host or cells: CHO-K1
Experiment: hGHS-R1a Ca assay (Fluo-4 calcium assay in CHO-K1 cells)
Type: cell-based
Conditions: CHO-K1 cells expressing human GHS-R1a; agonist dose response up to 30 μM
property-name: EC50 (µM)

Cc1ccccc1C1CN(C)C(=O)C12CCCN(C(=O)[C@@H](COCc1ccccc1)NC(=O)C(C)(C)N)C2 (single isomer, unassigned); 0.0002

I: CN1CC(c2ccc(F)cc2)C2(CCCN(C(=O)[C@@H](COCc3ccc(Cl)cc3)NC(=O)C(C)(C)N)C2)C1=O (single isomer, unassigned)
II: COc1ccc(COC[C@@H](NC(=O)C(C)(C)N)C(=O)N2CCCC3(C2)C(=O)N(C)CC3c2ccccc2)cc1 (single isomer, unassigned)
III: CN1CN(c2ccccc2)C2(CCCN(C(=O)[C@@H](COCc3ccccc3)NC(=O)C(C)(C)N)C2)C1=O (single isomer, unassigned)
Enquiry: Let's sort these by EC50, smallest first. Go ahead? Put the labels in the requested order and write them down.
Return: I, II, III
